Numbers sourced from patent US20050009924A1.

- Tested on: transcriptional activity of hTERT
- experiment.summary: SEAP reporter assay of hTERT expression, PhTERT-SEAP (hTERT-BJ1)
- Type: cell-based, human
- run.parameters: 2.0 μM, PhTERT-SEAP (hTERT-BJ1)
value.type: SEAP/vibility

Examples with answers:
| molecule | recorded.result |
| --- | --- |
| O=C(Nc1ccc(NC(=O)c2ccccc2F)c2c1C(=O)c1ccccc1C2=O)c1ccccc1F [VI10] | 0.90 |
| O=C(CCC1CCCC1)Nc1ccc(NC(=O)CCC2CCCC2)c2c1C(=O)c1ccccc1C2=O [VI19] | 0.84 |
| O=C(Nc1ccc(NC(=O)c2ccc(F)cc2)c2c1C(=O)c1ccccc1C2=O)c1ccc(F)cc1 [VI30] | 1.01 |
| O=C(Cc1cccs1)Nc1ccc(NC(=O)Cc2cccs2)c2c1C(=O)c1ccccc1C2=O [VI25] | 0.45 |

What the record says about Cc1cc(C(=O)Nc2ccc(NC(=O)c3cc(C)oc3C)c3c2C(=O)c2ccccc2C3=O)c(C)o1 [VI26] : SEAP/vibility is 0.83

Field SEAP/vibility (entry CCN(CC)CCC(=O)Nc1ccc(NC(=O)CCN(CC)CC)c2c1C(=O)c1ccccc1C2=O [VI34] ) reads 0.03

So, O=C(Nc1ccc(NC(=O)c2cccc(F)c2)c2c1C(=O)c1ccccc1C2=O)c1cccc(F)c1 [VI12] ? Its SEAP/vibility was 1.05

SEAP/vibility for CCN(CC)C(C)C(=O)Nc1ccc(NC(=O)C(C)N(CC)CC)c2c1C(=O)c1ccccc1C2=O (stereo not drawn) [VI35] is 0.41

# SEAP/vibility (molecule: NCC1CC1CCC(=O)Nc1ccc(NC(=O)CCC2CC2CN)c2c1C(=O)c1ccccc1C2=O (stereo not drawn) [VI36] ) is 0.88

----------
Each entry below lists one item and its recorded viability at 48 h, 19 µM value.
- experiment.summary: MTT relative viability, PhTERT-SEAP (hTERT-BJ1) cells
- run.parameters: human, hTERT-BJ1 cells, stable PhTERT-SEAP reporter clone
The answer is to be given in %; state only the numeric part.

| smiles.code | recorded.result |
| --- | --- |
| O=C(Oc1cccc2c1C(=O)c1cccc(OC(=O)c3cccc(Cl)c3)c1C2=O)c1cccc(Cl)c1 | 80 |
| O=C(Oc1cccc2c1C(=O)c1cccc(OC(=O)c3ccc(Cl)cc3)c1C2=O)c1ccc(Cl)cc1 | 89 |
| O=C(Cc1ccc(F)cc1)Nc1ccc(NC(=O)Cc2ccc(F)cc2)c2c1C(=O)c1ccccc1C2=O | 100 |

Kindly review the next molecule as well.
Item: O=C(Oc1cccc2c1C(=O)c1cccc(OC(=O)c3ccccc3Cl)c1C2=O)c1ccccc1Cl | viability at 48 h, 19 µM: 92

----------
- System: transcriptional activity of hTERT
- experiment.summary: SEAP reporter assay of hTERT expression, PhTERT-SEAP (hTERT-BJ1)
- Assay type: cell-based, human
- run.parameters: 19 μM, PhTERT-SEAP (hTERT-BJ1)
Readings of Relative SEAP activity (%) for the listed compounds
Kindly answer with a numeric value in %, unit omitted.

Below, each entry is followed by its recorded Relative SEAP activity (%) result.
| compound | Relative SEAP activity (%) |
| --- | --- |
| O=C(Nc1ccc(NC(=O)c2ccc(Cl)cc2)c2c1C(=O)c1ccccc1C2=O)c1ccc(Cl)cc1 [VI16] | 112 |
| O=C(Nc1ccc(NC(=O)c2ccccc2Cl)c2c1C(=O)c1ccccc1C2=O)c1ccccc1Cl [VI2] | 96 |
| O=C(Nc1ccc(NC(=O)c2cccc(Cl)c2)c2c1C(=O)c1ccccc1C2=O)c1cccc(Cl)c1 [VI5] | 105 |

Case O=C(Nc1ccc(NC(=O)c2ccc(F)cc2F)c2c1C(=O)c1ccccc1C2=O)c1ccc(F)cc1F [VI18] , transcriptional activity of hTERT, Relative SEAP activity (%) recorded as 51
